Experiment: Specific activity of purified CHI, absorbance decrease at 384 nm, naringenin chalcone
Format: biochemical
Conditions: purified CHI in 50 mM PBS, 100 μM substrate, 25° C.
// Specific activity, Naringenin chalcone lookup, one value per entry
Keep the answer to the number alone.

Consider the reported Specific activity, Naringenin chalcone for these molecules:
{"columns": ["molecule", "Specific activity, Naringenin chalcone"],
 "data": [
  ["CHIera Mut7: Chalcone isomerase variant 7 from Eubacterium ramulus, genetically engineered (protein, listed as Eubacterium ramulus) MADFKFEPMRSLIYVDCVSEDYRPKLQRWIYKVHIPDSISTFEPYVTKYAFYPSFPIPPQGDRFGYARMQLTEHHWLVSELDPRLEIRAIAETFPMDVLVWQGQIPAAAHTDAQIDSDGDAGDAARKSNNAEGNPFIFAFLPMWWEKDLKGKGRTIEDGANYRFNMTIGFPEGVDKAEGEKWLFEKVVPILQAAPECTRVLASAVKKDINGCVMDWVLEIWFENQSGWYKVMVDDMKALEKPSWAQQDAFPFLKPYHNVCSAAVADYTPSNNLANYRGYITMR", 61.4],
  ["CHIera Mut3: Chalcone isomerase variant 3 from Eubacterium ramulus, genetically engineered (protein, listed as Eubacterium ramulus) MADFKFEPMRSLIYVDCVSEDYRPKLQRWIYKVHIPDSISNFEPYVTKYAFYPSFPIPPQGDRFGYARMQLTEHHWLVSELDPRLEIKAIAETFPMDVLVWQGQIPAAAHTDAQIDSDGDAGRAAGKSNNAEGNPFIFAFLPMWWEKDLKGKGRTIEDGANYRFNMTIGFPEGVDKAEGEKWLFEKVVPILQAAPECTRVLASAVKKDINGCVMDWVLEIWFENQSGWYKVMVDDMKALEKPSWAQQDAFPFLKPYHNVCSAAVADYTPSNNLANYRGYITMR", 16.7],
  ["CHI1: Chalcone isomerase from Fusibacter sp. 3D3, access no. WP_069876268.1 (protein, Fusibacter sp. 3D3) SYVPEFKPMRSFILNNVRSDNDRPKAFRWLYKQHVPESISQFRPYCTKYATYHALPLVEGAEQFGTYNWIMTEHYWNFNIFQDKGLGHSRGLAFTEAYPHDFMEITCQPPSNTLRQSGWQGSAEGYHPIVFCFAPIFWENDFKGSERLTDDGANFRWLFFLSYPEGVTVEEGDQWFLETFAKEAAEMPEVIRFLSSRVMDSPRINPFDRIVELWFDDSEAWHNAMVKNGHLFTKPAWSKVDQFPFFEAYKDITGVFIMDRPDSDHLAQWQGYITTR", 21.3]
]}

// moving on: another record for Specific activity, Naringenin chalcone
So for CHIera Mut8: Chalcone isomerase variant 8 from Eubacterium ramulus, genetically engineered (protein, listed as Eubacterium ramulus) MADFKFEPMRSLIYVDCVSEDYRPKLQRWIYKVHIPDSISKFEPYVTKYAFYPSFPIPPQGDRFGYARMQLTEHHWLVSPLDPRLEINAIAETFPMDVLVWQGQIPAAAHTDAQIDSDGDAGEAARKSNNAEGNPFIFAFLPMWWEKDLKGKGRTIEDGANYRFNMTIGFPEGVDKAEGEKWLFEKVVPILQAAPECTRVLASAVKKDINGCVMDWVLEIWFENQSGWYKVMVDDMKALEKPSWAQQDAFPFLKPYHNVCSAAVADYTPSNNLANYRGYITMR , the logged Specific activity, Naringenin chalcone turned out to be 25.6
